Test system: TK-10 renal
experimental protocol: NCI-60 one-dose screen, 48 h
test parameters: 10 µM unless noted
The panel holds about 83,000 compounds, 20% with a hit somewhere; the sample as a whole holds those more often. Active and inactive are the calls of the source. The calls were made as follows: active = growth percent below 10; inactive = the rest.
Outcome field: choose from label 1 for active, label 0 for inactive

CC(=O)c1ccc(NS(=O)(=O)c2ccc([N+](=O)[O-])cc2)cc1	label 0
O=C(CC(C(=O)c1ccccc1)N1CCN(Cc2ccccc2)CC1)c1ccccc1 (stereo unspecified)	label 0
CCOC(=O)C(Br)=P(c1ccccc1)(c1ccccc1)c1ccccc1	label 0
O=c1[nH]c(SCc2ccccc2)nc2nc(Nc3ccc(NC(=S)Nc4ccccc4)cc3)nc(-c3ccc(O)cc3O)c12	label 0
N=C1c2nc3n(c2C(=O)c2nc4n(c21)CCCCC4)CCCCC3	label 0
CC1=C([Se]CC(OC(=O)[C@@H](CSSC(C)(C)C)NC(=O)C(C)(C)C)C(=O)NCCCCCC(=O)OCc2ccccc2)C(=O)c2ccccc2C1=O (stereo partly specified)	label 1

Prompt: For O=C(Nc1cccc(Cl)c1)Nc1cccc(Cl)c1 , which call appears in the assay record?
Response: label 0

Prompt: Record: Nc1ccc(N=Nc2ccccc2)cc1[N+](=O)[O-]
Response: label 0
